# measurement_target: 5α-Reductase of Rat Liver Microsomes (Rattus norvegicus, UniProt P24008)
# experiment_summary: biochemical
Some molecules, each annotated with its measured IC50.
measurement_label: IC50

INSERT INTO measurements (molecule, measurement_label, measured) VALUES
  ('CC/C=C\C/C=C\C/C=C\CCCCCCCCCC(=O)Cl [11,14,17-cis-Eicosatrienoyl Chloride, 11,14,17-eicosatrienoyl chloride]', 'IC50', '> 200 µM'),
  ('CCCCC/C=C\C/C=C\C/C=C\CCCCC(=O)O[C@H]1CC[C@@]2(C)C(=CC[C@H]3[C@@H]4CC[C@H]([C@H](C)CCCC(C)C)[C@@]4(C)CC[C@@H]32)C1 [cholesteryl γ-linolenate]', 'IC50', '> 200 µM'),
  ('CCCCCC/C=C/CCCCCCCCC(=O)O [10-trans-Heptadecenoic Acid, 10-trans-heptadecenoicacid]', 'IC50', '> 200 µM');

====

# measurement_target: 5α-Reductase of Rat Liver Microsomes (Rattus norvegicus)
# Sequence (P24008 1-259): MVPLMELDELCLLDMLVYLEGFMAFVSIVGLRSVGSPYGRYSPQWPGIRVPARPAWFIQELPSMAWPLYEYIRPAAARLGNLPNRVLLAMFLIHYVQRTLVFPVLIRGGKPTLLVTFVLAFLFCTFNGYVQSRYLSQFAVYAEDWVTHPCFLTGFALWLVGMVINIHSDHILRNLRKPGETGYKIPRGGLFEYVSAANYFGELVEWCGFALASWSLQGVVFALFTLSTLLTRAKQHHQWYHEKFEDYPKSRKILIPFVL
# experiment_summary: biochemical
pIC50: −log10 of the molar value.
measurement_label: pIC50

INSERT INTO measurements (compound, result_operator, measured) VALUES
  ('CCCCCC/C=C\CCCCCCCCC(=O)O [10-cis-Heptadecenoic Acid, 10-heptadecenoic acid]', '=', 4.55),
  ('CCCCCCCCC=CCC=CCC=CCCCC(=O)O [5,8,11-eicosatrienoic acid]', '=', 4.30),
  ('CCCCCCCC/C=C\CCCCCCCCCCCCCC(=O)O [Nervonic acid]', '<', 3.70),
  ('CCCCC/C=C\C/C=C\CCCCCCCCC#N [linoleyl cyanide nitrile]', '<', 3.70),
  ('CCCCC/C=C\C/C=C\C/C=C\C/C=C\CCCC(=O)O [Arachidonic acid]', '=', 4.19),
  ('CC/C=C\C/C=C\C/C=C\C/C=C\C/C=C\C/C=C\CCC(=O)O [Docosahexaenoic acid, cis-4,7,10,13,16,19-docosahexaenoic acid]', '=', 4.33),
  ('CCCCC/C=C\C/C=C\C/C=C\CCCCC(=O)Cl [γ-Linolenoyl Chloride, γ-linolenoyl chloride]', '<', 3.70),
  ('CCCCCCC=CCCCCCCCCC(=O)OC [methyl 10-heptadecenoate]', '<', 3.70),
  ('CCCCCCCCCCCCCC/C=C\CCCC(=O)O [5-Eicosenoic Acid, 5-eicosenoic acid]', '<', 3.70),
  ('CC/C=C\C/C=C\C/C=C\CCCCCCCCCC(=O)O [11,14,17-cis-Eicosatrienoic Acid, 11,14,17-eicosatrienoic acid]', '=', 4.54),
  ('CCCCC/C=C\C/C=C\C/C=C\C/C=C\CCCCCC(=O)O', '=', 4.34),
  ('CCCCC/C=C\C/C=C\C/C=C\CCCCCO [γ-Linolenyl Alcohol, γ-linolenyl alcohol]', '<', 3.70),
  ('CCCCC/C=C/C/C=C/CCCCCCCCCC(=O)O [11,14-trans-Eicosadienoic Acid, trans 11,14-eicosadienoic acid]', '<', 3.70),
  ('CCCCC/C=C\C/C=C\C/C=C\CCCCCCC(=O)OC [methyl homo-γ-linolenate]', '<', 3.70),
  ('CCCCC/C=C/C/C=C/CCCCCCCCC#N [linolelaidyl cyanide nitrile]', '<', 3.70),
  ('CCCCCC/C=C\CCCCCCCCCCC(=O)O [12-cis-Nonadecenoic Acid, 12-nonadecenoic acid]', '=', 4.05);
